ASSAY_REMARKS: growth inhibition of WT strain, primary screen, mitochondrial fusion inhibitor project, WT and mutant strains, chemical genetic (AID 1362)
DETAILS: mitochondrial fusion phenotypic screen, mutant strain inhibition; at 10 µM
The whole screen tested about 190,000 compounds, of which about 4,000 (2.1%) were called active. For the sample, actives were picked, then their nearest neighbours and some compounds at random.
Listed here are compounds together with their documented inhibition.

[
  {
    "COMPOUND": "CN(CCc1cn[nH]c1)C(=O)CC1C(=O)NCCN1Cc1cccc(Oc2ccccc2)c1 (stereo unspecified)",
    "inhibition / %": 0.64
  },
  {
    "COMPOUND": "OC(COc1ccc(CN2CCSCC2)cc1)CN1CCCCC1 (stereo unspecified)",
    "inhibition / %": 3.34
  },
  {
    "COMPOUND": "Cc1c(Cl)cccc1NC(=O)CC1SC(=NCC2CCCO2)NC1=O (stereo unspecified)",
    "inhibition / %": 19
  },
  {
    "COMPOUND": "CCN1CCC2(CCN(Cc3cn[nH]c3-c3ccc(OC)c(F)c3)C2)C1 (stereo unspecified)",
    "inhibition / %": -5.08
  },
  {
    "COMPOUND": "COc1ccccc1C(c1nnnn1CC1CCCO1)N1CCN(c2ccccc2)CC1 (stereo unspecified)",
    "inhibition / %": -7.45
  },
  {
    "COMPOUND": "Cc1ccc2nc(NCCCNC(=O)c3cnccn3)c(C#N)cc2c1",
    "inhibition / %": -2.29
  }
]

Numbers sourced from PubChem BioAssay AID1362.
